Data origin: PubChem BioAssay (NCI)

system: DU-145 prostate; assay: NCI tumour cell line growth inhibition, 48 h
Here, each record is paired with measured GI50 data.
assay readout: GI50

>>> df
                                   compound        tested_on  assay_readout  observed
0  O=C(Nc1ccc(F)cc1)Nc1ccccc1CNc1nc(Nc2ccc(OCCN3CCCC3)cc2)ncc1Cl  DU-145 prostate           GI50   2480 nM
1  CCC[CH2][Sn]([CH2]CCC)([O]C(=O)c1cc(F)ccc1F)[O][Sn]([CH2]CCC)([CH2]CCC)[O]C(=O)c1cc(F)ccc1F  DU-145 prostate           GI50    646 nM
2         CN(Cc1ccc(Cl)cc1)c1ccc(CO)c(Cl)c1  DU-145 prostate           GI50  10800 nM
3  Cn1cc(C2=C(c3cn(CCO)c4ccccc34)C(=O)NC2=O)c2ccccc21  DU-145 prostate           GI50   6940 nM
4  Cn1cc(C2=C(c3cccc(N)c3)C(=O)NC2=O)c2ccccc21  DU-145 prostate           GI50  19000 nM
5  O=C1C2C(C(=O)[N]1[Hg][c]1cccs1)C1(Cl)C(Cl)=C(Cl)C2(Cl)C1(Cl)Cl (centres undefined)  DU-145 prostate           GI50   1800 nM
6  CN(CCCCCl)P(=O)(OCc1ccc([N+](=O)[O-])o1)OCC1OC(n2ccc(N)nc2=O)C(F)(F)C1O (centres undefined)  DU-145 prostate           GI50    188 nM
7  CN(c1cc2ncc(=O)[nH]c2cc1NC(N)=NCc1ccc(Cl)cc1)C1CCCCC1  DU-145 prostate           GI50   7560 nM
8        Clc1cc2c(cc1Cl)Oc1cc(Cl)c(Cl)cc1O2  DU-145 prostate           GI50  > 625 nM

----------
Here, each record is paired with measured GI50 data.
system: MOLT-4 leukemia; assay: NCI tumour cell line growth inhibition, 48 h
assay readout: GI50

                                    compound  observed
 0      [Cl][Sn]([Cl])([c]1ccccc1)[c]1ccccc1   5.25 µM
 1  c1ccc(C2CC(c3cccc(Nc4ccncc4)c3)=NN2c2ccccc2)cc1 (stereo unspecified)   2.02 µM
 2  Cn1cc(C2=C(c3cccc(N)c3)C(=O)NC2=O)c2ccccc21   14.1 µM
 3  O=c1c2c3c(sc2n2c(-c4cc(-c5ccccc5)no4)nnc2n1Cc1ccccc1)CCCC3   3.72 µM
 4  CC(=O)N1N=C(c2ccc(Nc3nc(Nc4ccc(Cl)cc4)nc(Nc4ccc(Cl)cc4)n3)cc2)CC1c1ccc([N+](=O)[O-])cc1 (stereo unspecified)   1.92 µM
 5          CCOc1ccccc1NC(=O)c1cc2ccccc2cc1O   2.72 µM
 6          COc1cc2cc(C(=O)CCC(=O)O)sc2cc1OC  > 100 µM
 7  CCN1/C(=C/C=C/c2n(-c3ccccc3)c3ccc(-c4nc5ccccc5s4)cc3[n+]2CC)N(c2ccccc2)c2ccc(-c3nc4ccccc4s3)cc21    1.8 µM
 8   O=c1ccc(N=Nc2ccc([N+](=O)[O-])cc2)ccc1O   4.08 µM
 9      O=c1cc(-c2ccccc2)oc2cc(O)c(O)c(O)c12   53.7 µM
10  Fc1ccc(-c2nn3c(-c4ccc(F)c(Cl)c4)nnc3s2)cc1   26.3 µM

----------
tested on: UACC-62 melanoma; assay: NCI tumour cell line growth inhibition, 48 h
Here, each record is paired with measured GI50 data.
assay readout: GI50

>>> df
                                   compound         tested_on  assay_readout    observed
0      O=c1cc(-c2ccccc2)oc2cc(O)c(O)c(O)c12  UACC-62 melanoma           GI50     9.39 µM
1       CC(=O)Nc1ccc(/C=C/C(=O)c2ccccc2)cc1  UACC-62 melanoma           GI50     17.8 µM
2        Clc1cc2c(cc1Cl)Oc1cc(Cl)c(Cl)cc1O2  UACC-62 melanoma           GI50  > 0.625 µM
3  O=C1CC(c2cccc(O)c2)C2(C(=O)NC(=S)NC2=O)C(c2cccc(O)c2)C1 (stereo not drawn)  UACC-62 melanoma           GI50    > 100 µM
4  N#Cc1ncc(-c2ccc(C(F)(F)F)cc2)c(NCc2cc(C(F)(F)F)cc(C(F)(F)F)c2)n1  UACC-62 melanoma           GI50     3.93 µM
5  COc1cc(-c2nc3sccn3c2-c2ccnc(NCCNS(=O)(=O)c3ccc(Cl)cc3)n2)ccc1F  UACC-62 melanoma           GI50     1.39 µM
6    CC(C)(O)C#Cc1ccc(/C=C/C(=O)c2ccccc2)s1  UACC-62 melanoma           GI50     13.7 µM
7  Cc1cc(NCCCNc2ccnc3cc(Cl)ccc23)nc(N2CCN(C)CC2)n1  UACC-62 melanoma           GI50     2.05 µM

----------
system: EKVX NSCLC; experiment: NCI tumour cell line growth inhibition, 48 h
Here, each record is paired with measured TGI data.
assay readout: TGI

compound	assay readout	observed
N#CC(c1ccnc(Cl)n1)c1nc2ccccc2s1 (stereo not given)	TGI	> 74.6 µM
CCCOC(=O)C1CCC(=O)N1C(=O)C(C)Cl (stereo not given)	TGI	> 100 µM
CCCCCCCCCCCCCCCc1ccc(OCC(O)CO)cc1 (stereo not given)	TGI	78.5 µM
COC(=O)CC1C(COC(C)=O)OC(n2cc(C)c(=O)[nH]c2=O)C1OC(C)=O (stereo not given)	TGI	> 100 µM
O=C1CCCC2C(O)CCC[C@H]12 (stereo not given in full)	TGI	> 100 µM
Nc1nc(NCCO)c(N=O)c(=O)[nH]1	TGI	> 100 µM
C=[N+](CNC(=O)CNC(=O)C(Cc1ccc([N+](=O)[O-])cc1)NC(=O)OC(C)(C)C)C(=O)CNC(=O)C(Cc1ccc([N+](=O)[O-])cc1)NC(=O)OC(C)(C)C (stereo not given)	TGI	> 100 µM
O=C(Nc1ccccc1)c1nn(-c2cc(S(=O)(=O)O)c([N+](=O)[O-])cc2Cl)[n+](-c2cc(S(=O)(=O)[O-])c([N+](=O)[O-])cc2Cl)n1	TGI	> 100 µM
NC(=O)c1cccc(C2OC(COP(=O)(O)O)C(O)C2O)c1 (stereo not given)	TGI	> 50 µM
O=S1(=O)C(c2ccccc2)C(N2CCCCC2)C1C1CC2c3ccccc3C1c1ccccc12 (stereo not given)	TGI	> 100 µM
O=C(O)c1cc(=O)[nH]c(SCc2ccccc2)n1	TGI	> 100 µM
COc1cc(/C=N/n2c(Cc3ccc(Cl)cc3)n[nH]c2=O)cc(OC)c1OC	TGI	> 100 µM
CN(C)c1nc2oc(-c3ccccc3)c(-c3ccccc3)c2c2nncn12	TGI	> 100 µM
OC1(c2ccc(Cl)cc2)c2c(ccc3c2OCO3)C2=NCCN21 (stereo not given)	TGI	> 100 µM
COc1cc(OC)cc(OCc2ccc3nc(-c4ccccc4)c(Cl)nc3c2)c1	TGI	> 100 µM
CC(C)(C)n1c(=O)[nH]n(C2NN=Cc3cccc4cccc2c34)c1=O (stereo not given)	TGI	68.8 µM
N#C/C(=N\Nc1ccc(Cl)cc1)C(=O)Nc1cc(-c2ccccc2)nn1-c1ccccc1	TGI	> 100 µM
O=C(N/N=C(/COc1ccc(Cl)cc1)N=Cc1cccnc1)c1ccncc1	TGI	> 100 µM
COc1ccc2nc3cc(Cl)ccc3c(NCCC[N+](C)(C)CCCCCCCCCCCCCCCC[N+](C)(C)CCCNc3c4ccc(Cl)cc4nc4ccc(OC)cc34)c2c1	TGI	9.97 µM
O=c1c2c3c(sc2n2c(-c4cc(-c5ccccc5)no4)nnc2n1Cc1ccccc1)CCCC3	TGI	> 67.6 µM
CC(C)(C)OC(=O)CC(NC(=O)OC(C)(C)C)C(=O)N[C@@H]1CCCC[C@H]1C(=O)OCc1ccccc1 (stereo not given in full)	TGI	> 100 µM
COc1ccc(NC(=O)CC(=O)N2N=C(N(CCC#N)c3ccccc3Cl)CC2c2ccccc2)cc1 (stereo not given)	TGI	> 100 µM
CCN(CC)CCCn1cnc2ncccc2c1=O	TGI	> 100 µM
CC(=O)CCc1ccc(OC2OC(COC(=O)c3cc(O)c(O)c(O)c3)C(O)C(O)C2OC(=O)/C=C/c2ccccc2)cc1 (stereo not given)	TGI	72 µM
O=C(CC(=O)Nc1cccc(Cl)c1)NNCC(=O)Nc1nnc(-c2ccccc2)s1	TGI	> 100 µM
CCOc1ccccc1NC(=O)c1cc2ccccc2cc1O	TGI	11.3 µM
CCOc1ccc(NC(=O)C(=O)NO)cc1	TGI	> 100 µM
O=C(Nc1ccc(F)cc1)Nc1ccccc1CNc1nc(Nc2ccc(OCCN3CCCC3)cc2)ncc1Cl	TGI	9.82 µM
CC(=O)N1CN2C(=O)CCC2c2ccccc21 (stereo not given)	TGI	> 100 µM
CC(=O)Nc1ccc2c3c(cc(O)c2c1)N(C(=O)CCCCCC(=O)N1CC(CCl)c2c1cc(O)c1cc(NC(C)=O)ccc21)CC3CCl (stereo not given)	TGI	0.803 µM
CCCCCCCc1cc(OC(=O)c2c(C)cc(OC)cc2O)cc(O)c1C(=O)O	TGI	77 µM
CCOC(O)(NC(=O)C(C(F)(F)F)C(F)(F)F)C(F)(F)F (stereo not given)	TGI	> 100 µM
CCCc1cc(O)c2c3c(c(=O)oc2c1)CN(C)CC3	TGI	> 100 µM
Nc1cc2c(nnn2C2OC(COCc3ccccc3)C(OCc3ccccc3)C2OCc2ccccc2)c(=O)[nH]1 (stereo not given)	TGI	46.1 µM
C1=Nc2ccc(cc2)N=Cc2ccc(cc2)OCc2cccc(n2)COc2ccc1cc2	TGI	> 100 µM
CC(=O)Nc1ccc(N=C2C(c3ccccc3)=C(SC3=C(c4ccccc4)C(=Nc4ccc(NC(C)=O)cc4)c4ccccc43)c3ccccc32)cc1	TGI	> 100 µM
COP(=O)(Cc1ccc(/C=C/C#N)o1)OC	TGI	> 100 µM
O=c1c2ccccc2c(Br)c(Br)c2ccccc12	TGI	64.3 µM
CS(=O)(=O)OC1CN2CCC1CC2 (stereo not given)	TGI	> 100 µM
C/C(=C\c1ccccc1)C(=O)NCc1ccc(C(=O)NCCC(C)C)cc1	TGI	> 100 µM
